# Tested on: Bacillus cereus
# TEST DESCRIPTION: Inhibition of Bacillus cereus phosphatidylcholine specific phospholipase C (PC-PLC BC) assessed as enzyme activity by measuring formation of resorufin fluorophore 10 uM by Amplex-Red based fluorescence assay relative to control
# Parameters: scale not given: the % may be the effect or the level left
OBSERVED PROPERTY: Activity (%)
Answers are plain numbers, in %.

Some entries whose results are on file:
{"columns": ["STRUCTURE SMILES", "Activity (%)"],
 "data": [
  ["O=C(NO)c1cc(NCc2cccc(Cl)c2)ccc1C1CCOCC1", 79.7],
  ["COC(=O)c1cc(NCc2ccccc2Cl)ccc1C1CCOCC1", 101]
]}

Qu. # get_value(readout= Activity, system= Bacillus cereus) for O=C(O)c1ccc(NCc2ccccc2Br)cc1N1CCOCC1
Ans. 95.2

----------
# Tested on: Bacillus cereus
# TEST DESCRIPTION: Inhibition of Bacillus cereus phosphatidylcholine specific phospholipase C (PC-PLC BC) assessed as enzyme activity by measuring formation of resorufin fluorophore 10 uM by Amplex-Red based fluorescence assay relative to control
# Design: scale not given: the % may be the effect or the level left
What Activity was measured for each of the following?
Numbers only, in %.

Solved entries:
{"columns": ["STRUCTURE SMILES", "Activity [%]"],
 "data": [
  ["O=C(O)c1cc(NCc2cccc(Br)c2)ccc1C1CCOCC1", 113],
  ["O=C(O)c1cc(NCc2ccccc2Cl)ccc1C1CCOCC1", 107],
  ["O=C(O)c1cc(NCc2ccc(F)cc2)ccc1C1CCOCC1", 102],
  ["O=C(NO)c1cc(NCc2ccccc2Cl)ccc1C1CCOCC1", 82.8]
]}

Turning to the following compound.
Qu. Would you mind telling me what Activity value was observed for O=C(NO)c1cc(NCc2ccccc2)ccc1C1CCOCC1 ?
Ans. 80.7

Numbers sourced from ChEMBL document CHEMBL6182838.
